The reported measurements were obtained from paper PMC9482650.

assayed system: MAGI1_2, Q96QZ7
Sequence (Q96QZ7 456-580): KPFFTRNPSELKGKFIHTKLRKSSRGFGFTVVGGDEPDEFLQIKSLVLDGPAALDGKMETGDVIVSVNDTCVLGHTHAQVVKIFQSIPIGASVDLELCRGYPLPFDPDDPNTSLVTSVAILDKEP
procedure details: holdup assay
Set-up: key: below the threshold = too weak to quantify, mostly under pKd 3.1 to 4
test context: plain residues with an end cap or a label only (N-terminal biotin on a linker: ado-ado)
Collected pKd values appear next to each entry.
Respond with the number and no other words.

# binder, pKd
rows = [
    ("RFQQRMQTHV [KIRREL1, Q96J84]", 5.41),
]

Now, please, on to the next binder.
Report pKd for ARESQKVSHV [FAM110B, Q8TC76] 4.09
